All figures here come from PubChem BioAssay AID1417.

molecular target: Induced myeloid leukemia cell differentiation protein Mcl-1 (Homo sapiens) (UniProt Q07820); assay: Mcl-1/Noxa binding inhibitor potency, dose response, biochemical, TR-FRET (AID 1417); conditions: Mcl-1/Noxa peptide interaction, cell-free TR-FRET (terbium/rhodamine), 2 h; measured here: absolute IC50
Sequence (Q07820 whole entry, looked up): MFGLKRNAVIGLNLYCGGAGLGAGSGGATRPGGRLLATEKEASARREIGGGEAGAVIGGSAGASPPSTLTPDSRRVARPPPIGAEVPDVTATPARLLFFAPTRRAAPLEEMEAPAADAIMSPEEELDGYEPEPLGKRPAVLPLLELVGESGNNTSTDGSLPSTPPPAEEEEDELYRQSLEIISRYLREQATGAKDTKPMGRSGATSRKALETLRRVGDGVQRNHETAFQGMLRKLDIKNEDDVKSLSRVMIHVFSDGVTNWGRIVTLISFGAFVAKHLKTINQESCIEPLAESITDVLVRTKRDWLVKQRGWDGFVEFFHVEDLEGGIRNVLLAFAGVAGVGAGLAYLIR
I'd be grateful if you could share measured IC50 for these entries.

For the 5 molecules below, give their IC50 values.
1. Cc1nc2ccc(NC(=O)c3cc([N+](=O)[O-])cc([N+](=O)[O-])c3Cl)cc2s1
2. Cc1ccc(NC(=O)CN2C(=O)S/C(=C\c3cccn3-c3cccc(C(=O)O)c3)C2=O)c(C)c1
3. COc1cc(/C=C/C(=O)OCC(=O)Nc2cc(C)c(C)cc2[N+](=O)[O-])ccc1O
4. C=CCOC(=O)C1=C(C)N=c2s/c(=C3\C(=O)N(CC(=O)O)c4ccccc43)c(=O)n2C1c1ccc(OC)cc1 (configuration not stated)
5. CC1CCCCC1NC(=O)c1ccc2c(c1)[nH]c(=O)n2C1CCCC1 (configuration not stated)

Output:
1.3 µM
13.1 µM
2.4 µM
3.48 µM
> 54 µM

For the 5 molecules below, give their IC50 values.
1. Cc1ccc(C)c(S(=O)(=O)Nc2cc(SCC(=O)O)c(O)c3ccccc23)c1
2. COc1cc(/C=C2\SC(=O)NC2=O)ccc1Oc1ccc([N+](=O)[O-])cc1[N+](=O)[O-]
3. COc1cc(/C=C2/SC(=O)NC2=O)ccc1Oc1ccc([N+](=O)[O-])cc1[N+](=O)[O-]
4. COc1ccc2nc(-c3ccco3)c(-c3ccco3)nc2c1
5. CNC(=O)NC1CCCc2ccccc21 (configuration not stated)

Output:
1. < 0.4 µM
2. 3.29 µM
3. 4.2 µM
4. 2.25 µM
5. > 54 µM

For the 7 molecules below, give their IC50 values.
1. CCN(CC)c1ccc(NC2=C(Cl)C(=O)c3ccccc3C2=O)cc1
2. Cc1nn(Cc2ccc(F)cc2)c2sc(C(=O)Nc3ccc(N4CCOCC4)cc3N3CCOCC3)cc12
3. O=C(Nc1ccc2c(c1)nc1n2CCN(C2CCCCC2)C1)c1ccco1
4. O=C(NCCO)c1ccc2nc(-c3ccco3)c(-c3ccco3)nc2c1
5. COc1ccc(C(c2c(O)ccc3ccccc23)N2CCOCC2)c(OC)c1 (configuration not stated)
6. CN(C(=O)COC(=O)c1cc(-c2ccco2)nc2ccccc12)C1CCS(=O)(=O)C1 (configuration not stated)
7. O=C(O)c1ccc(-n2cccc2/C=C2/NC(=O)N(c3cccc(Cl)c3)C2=O)cc1

Output:
< 0.4 µM
> 54 µM
9.74 µM
0.527 µM
< 0.4 µM
< 0.4 µM
< 0.4 µM

For the 4 molecules below, give their IC50 values.
1. O=C(O)c1ccc(Nc2nc(-c3cc4ccccc4oc3=O)cs2)cc1O
2. CC(=O)Nc1sc(N/N=C\c2ccco2)nc1-c1cccs1
3. CCN(CC)Cc1cc(O)c(CN(CC)CC)cc1O
4. CCOC(=O)c1c(OCC)[nH]c2c1cc(O)c1ccccc12

Output:
5.36 µM
10.6 µM
< 0.4 µM
< 0.4 µM
